Target: Leukotriene B4 receptor (Homo sapiens, UniProt Q9NPC1+Q15722)
Sequence (Q15722 whole entry, looked up): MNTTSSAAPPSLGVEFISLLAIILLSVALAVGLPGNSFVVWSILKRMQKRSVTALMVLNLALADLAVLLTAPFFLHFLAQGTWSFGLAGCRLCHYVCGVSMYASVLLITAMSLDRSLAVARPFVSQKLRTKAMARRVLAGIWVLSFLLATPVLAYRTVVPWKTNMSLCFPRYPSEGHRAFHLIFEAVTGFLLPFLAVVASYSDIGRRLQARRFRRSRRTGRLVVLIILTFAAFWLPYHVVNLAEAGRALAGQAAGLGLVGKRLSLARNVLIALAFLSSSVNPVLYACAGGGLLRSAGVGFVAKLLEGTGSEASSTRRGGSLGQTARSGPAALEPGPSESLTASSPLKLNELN
Sequence (Q9NPC1 whole entry, looked up): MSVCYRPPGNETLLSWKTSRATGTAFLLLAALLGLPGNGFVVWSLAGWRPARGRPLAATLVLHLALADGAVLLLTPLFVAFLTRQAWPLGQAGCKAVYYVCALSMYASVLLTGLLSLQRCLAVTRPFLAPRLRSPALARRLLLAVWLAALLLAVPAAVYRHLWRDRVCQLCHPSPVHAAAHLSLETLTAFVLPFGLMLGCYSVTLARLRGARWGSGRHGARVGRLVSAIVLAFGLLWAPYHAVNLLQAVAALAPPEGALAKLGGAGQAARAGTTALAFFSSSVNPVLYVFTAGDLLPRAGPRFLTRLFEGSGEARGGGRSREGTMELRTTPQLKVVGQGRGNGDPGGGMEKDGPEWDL
Assay: Inhibition of LTB4 -induced bronchoconstriction in guinea pigs following 0.1 mg/kg prior to challenge.
Format: functional, organism-based
Set-up: dose 0.1 mg/kg; scale not given: the % may be the effect or the level left
Details: Cavia porcellus; target entry is the homologue from another species; at 0.1 mg/kg
QUANTITY NAME: Control (%)
Expressed in %, but write only the number.

Before answering, review these 3 worked examples.
COc1cc(C(=O)N(C(C)C)C(C)C)ccc1OCCCCCOc1ccc(C(=N)N)cc1.O=C(O)/C=C\C(=O)O [MOXILUBANT MALEATE] ... 80
COc1ccc(/C=C/CCCCOc2ccc(C(=O)c3cccc(C(=O)O)c3)cc2CCC(=O)O)cc1 ... 88
CCCc1c(OCCCOc2ccc(C(C)=O)c(OC)c2CCC)ccc2c1OC(C(=O)O)CC2 (racemic) ... 91

Shifting focus to the compound that follows.
# Control measured on Leukotriene B4 receptor (Homo sapiens, UniProt Q9NPC1+Q15722) for item COc1ccc(/C=C/CCCCOc2cccc(OCCCCC(=O)O)c2CCC(=O)O)cc1 = 101
